Experiment: NOVARTIS: Cytotoxicity against human hepatocellular carcinoma cell line (Huh7)
Type: toxicity, cell-based, Huh-7
Conditions: Huh7 cells (hepatocellular carcinoma cell line)

# molecule, CC50
records = [
    ("COc1cccc(CN2CCc3nc(N4CCCCC4)sc3C2)c1", "> 10 µM"),
    ("Cc1ccccc1CN1CCN(CC=Cc2ccccc2)CCC1=O", "> 100 µM"),
    ("CCCCC(CC)C(=O)NCCCCNc1ccnc2cc(Cl)ccc12 (stereo unspecified)", "> 10.1 µM"),
    ("Cc1ccc(C)c(N2CCN(CCCNC(=O)c3ccc(CSc4nc5cnccc5[nH]4)cc3)CC2)c1", "23 µM"),
    ("COc1cc2c(O[C@@H]3O[C@H](CO)[C@@H](O)[C@H](O)[C@H]3O)c3c(c(-c4ccc5c(c4)OCO5)c2cc1OC)C(=O)OC3", "0.784 µM"),
    ("COc1ccc(/C=C/C(=O)NC(=O)c2ccccc2O)cc1", "> 10 µM"),
    ("Oc1ccc(-c2cccnc2)cc1CNCC1CC2C=CC1C21CC1 (stereo unspecified)", "> 10 µM"),
    ("Cc1cc(C)cc(NCC(O)Cn2c3ccc(Cl)cc3c3cc(Cl)ccc32)c1 (stereo unspecified)", "31.2 µM"),
    ("COc1ccc2nc(-c3ccccc3)cc(O)c2c1", "0.835 µM"),
    ("CCOc1cc(C2CC(=O)NC3=C2C(=O)CC(C)(C)C3)ccc1OC(C)C (stereo unspecified)", "> 100 µM"),
    ("CC(=O)c1ccc(NC(=O)CN(C)S(=O)(=O)c2ccc3[nH]c4c(c3c2)CCCC4)cc1", "66.9 µM"),
    ("c1ccc(-c2cc(N3CCN(c4ccccn4)CC3)nc(-c3ccccn3)n2)nc1", "3.03 µM"),
    ("COc1ccc(C2C(C(N)=O)=C(C)Nc3ncnn32)cc1OC (stereo unspecified)", "> 10 µM"),
    ("CC1=C(C(=O)OC2CCCCC2)C(c2ccc(F)cc2)C2=C(CC(c3ccccc3)CC2=O)N1 (stereo unspecified)", "> 100 µM"),
    ("Cc1nc2ccc(NC(=O)C3CC3)cc2c(=O)n1Cc1ccc(Cl)cc1", "> 100 µM"),
    ("CCC(=O)NCc1nnc(SCc2cccc(C(F)(F)F)c2)n1-c1cccc(OC)c1", "> 100 µM"),
    ("COc1ccccc1N1CCN(c2c3c(nc4nncn24)CCC3)CC1", "> 10 µM"),
    ("CCCOC(=O)C1=C(C)NC2=C(C(=O)CC(c3ccc(OC)c(OC)c3)C2)C1c1cccc(C)c1 (stereo unspecified)", "31.9 µM"),
    ("O=C(C1CCN(c2cccc3c2C(=O)N(C2CC2)C3=O)CC1)N1CCC(O)(c2ccc(Cl)cc2)CC1", "> 10 µM"),
    ("Cc1ccccc1/C=C1\\SC(=Nc2ccccc2)NC1=O", "> 100 µM"),
    ("CN1C2CCC1C(=Cc1ccsc1)C(=O)C2=Cc1ccsc1", "> 100 µM"),
    ("OC(CN1CCN(CC(O)Cn2c3ccccc3c3cc(Br)ccc32)CC1)Cn1c2ccccc2c2ccccc21 (stereo unspecified)", "> 10 µM"),
    ("CCN(CC)c1cc2oc3cc(=[N+](CC)CC)ccc-3nc2c2ccccc12", "39.8 µM"),
    ("CC(C)(C)CC(C)(C)Nc1c(-c2ccccc2OC(=O)c2cccc(C(F)(F)F)c2)nc2ccccn12", "> 10 µM"),
    ("CCCCN(CC)S(=O)(=O)c1cc(Br)cc2c1N(C(C)=O)CC2", "> 10 µM"),
    ("Cc1nc(-c2ccccc2)nc(C(=O)N2CCN(S(=O)(=O)/C=C/c3ccccc3)C(C)C2)c1C(=O)OCC(C)C (stereo unspecified)", "> 10 µM"),
    ("CN1CCc2c(sc3nc(SCc4ccc(F)cc4)n(-c4ccccc4)c(=O)c23)C1", "> 100 µM"),
    ("CC(C)CN(CC(O)CN(CCN1CCOCC1)S(=O)(=O)Cc1ccccc1)C(=O)C1CCCN1C(=O)OC(C)(C)C (stereo unspecified)", "> 10 µM"),
    ("O=C(c1ccc([N+](=O)[O-])o1)N1CCN(c2cccc(Cl)c2)CC1", "> 100 µM"),
    ("O=C(Cn1c2ccccc2c(=O)c2cc([N+](=O)[O-])ccc21)Nc1ccc(F)c(Cl)c1", "> 100 µM"),
    ("NNc1ncnc2[nH]cnc12", "> 10 µM"),
    ("CS(=O)(=O)c1ccccc1S(=O)(=O)N1CCC(NC(=O)c2ccccc2Cl)(C(=O)O)CC1", "> 10 µM"),
    ("Cn1cc(C(c2cccs2)c2cn(C)c3ccccc23)c2ccccc21", "52.3 µM"),
    ("CCN(CC)CCNc1ccnc2cc3ccccc3cc12", "20.3 µM"),
    ("C[N+](C)(CC#Cc1ccccc1)CC#Cc1ccccc1", "> 100 µM"),
    ("CCCCCCCCC(=O)NCCCCNc1ccnc2cc(Cl)ccc12", "5.6 µM"),
    ("c1ccc(-c2nc(-c3ccc4cccnc4c3)n(-n3c(-c4ccc5cccnc5c4)nc(-c4ccccc4)c3-c3ccccc3)c2-c2ccccc2)cc1", "29.1 µM"),
    ("CCN1CCCC1CNc1[nH]cnc2c3cc(F)ccc3nc1-2 (stereo unspecified)", "22.4 µM"),
    ("CCCN1CCN(CCCNC(=O)c2ccc3c(c2)sc2nc(-c4ccc(OC)cc4)cn23)CC1", "> 100 µM"),
    ("COc1cccc(-c2cncc(-c3cncc(OC)c3)n2)c1", "> 100 µM"),
    ("CN(C)CCCNc1ncnc2c1[nH]c1ccccc12", "> 100 µM"),
]
